assay.target: SHP2-C SH2;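 further: peptide library displayed on the E. coli surface as eCPX fusions, selected cells deep-sequenced, score is each peptide's frequency after selection divided by its frequency in the input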
assay.notes: SH2 binding enrichment of the phosphorylated peptide, bacterial display (enrichment ratio); higher = better substrate or ligand; peptides without Tyr show the background
quantity.measured: SH2 binding enrichment

The following sequences have reported results that may help.
# input.sequence, reported
records = [
    ("PLRAYYLIARV [HLCS_Y635_D634Y]", 1.69),
    ("TDTAAYEERLR [SPTB_Y474_V478L]", 0.924),
    ("TPTYPYLLPKS [PLD2_Y580]", 0.899),
    ("LGSWTYTKTVS [ROS1_Y144]", 0.64),
    ("PVGVLYEVKVF [PTS_Y128_K129E_YF]", 0.836),
]

P = SSFDTYHLSRE [KIR3DL2_Y253_I252T_YF]
Q = LSAPWYLNRIS [HEXA_Y421]
R = NHQYDYTFDWT [CSNK1A1_Y294]
Hey, quick one: sort these by SH2 binding enrichment, largest value first please. # format: label list in the order the request specifies Q, P, R
(Q: 1.19, P: 0.824, R: 0.561)

---

assay.target: FGFR1 (UniProt P11362)
Sequence (P11362 whole entry, looked up): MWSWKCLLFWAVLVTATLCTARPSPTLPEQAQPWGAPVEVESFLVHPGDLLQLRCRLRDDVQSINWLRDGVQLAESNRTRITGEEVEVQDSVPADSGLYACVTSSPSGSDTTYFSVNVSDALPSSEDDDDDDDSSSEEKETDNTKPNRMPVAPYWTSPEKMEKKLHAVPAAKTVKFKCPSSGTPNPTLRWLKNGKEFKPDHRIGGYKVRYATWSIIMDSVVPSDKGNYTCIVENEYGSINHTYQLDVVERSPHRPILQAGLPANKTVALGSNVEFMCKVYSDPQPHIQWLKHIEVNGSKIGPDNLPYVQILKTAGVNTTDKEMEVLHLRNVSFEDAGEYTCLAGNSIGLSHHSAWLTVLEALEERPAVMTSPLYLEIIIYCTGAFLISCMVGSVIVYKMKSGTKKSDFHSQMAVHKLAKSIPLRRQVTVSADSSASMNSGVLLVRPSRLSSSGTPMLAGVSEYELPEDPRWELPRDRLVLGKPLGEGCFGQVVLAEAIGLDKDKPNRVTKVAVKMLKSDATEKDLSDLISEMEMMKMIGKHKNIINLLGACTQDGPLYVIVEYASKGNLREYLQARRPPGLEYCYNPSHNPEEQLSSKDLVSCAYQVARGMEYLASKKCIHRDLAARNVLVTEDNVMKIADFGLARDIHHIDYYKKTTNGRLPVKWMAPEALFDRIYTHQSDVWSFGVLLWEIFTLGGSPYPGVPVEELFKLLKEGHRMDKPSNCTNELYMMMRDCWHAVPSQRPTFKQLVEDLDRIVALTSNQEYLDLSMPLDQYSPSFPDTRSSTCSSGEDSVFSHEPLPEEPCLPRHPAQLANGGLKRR
assay.notes: phosphorylation enrichment, bacterial display (enrichment ratio); higher = better substrate or ligand; peptides without Tyr show the background
quantity.measured: phosphorylation enrichment
Give the figure by itself; no unit, no explanation.

# input.sequence, assay.target, phosphorylation enrichment
measured = [
    ("TGYRPYVCPFD [YY1_Y383_D380Y]", "FGFR1 (UniProt P11362)", 0.621),
    ("CTTIHCNFMCN [TP53_Y234_Y234C_YF]", "FGFR1 (UniProt P11362)", 0.45),
    ("HNQDGYSYLSR [LDLR_Y845_P848L]", "FGFR1 (UniProt P11362)", 0.879),
    ("AHPIIYTIIEA [PYKtide_no-pT_2014]", "FGFR1 (UniProt P11362)", 1.57),
    ("IDFARYWHGDD [MMP11_Y162]", "FGFR1 (UniProt P11362)", 0.477),
]

Let me check: MRALIYNSSTV [PLEKHA7_Y243_A248V] , system FGFR1 (UniProt P11362), measured phosphorylation enrichment is 0.447

Reported FGFR1 (UniProt P11362) phosphorylation enrichment for item LITILYIGFLG [KCNQ1_Y267_T265I] was 0.72

Here VDTGVYAVPPP [BCAR1_Y410_S407T] was tested on FGFR1 (UniProt P11362), and its phosphorylation enrichment came to 1.28

// phosphorylation enrichment (FGFR1 (UniProt P11362)) for HHTDECEFDEL [TGM1_Y134_Y134C_YF] = 0.605

Value sought: phosphorylation enrichment, system FGFR1 (UniProt P11362), item EEQFFYEKAIL [BCCIP_Y257_E254Q] . Result: 0.442

Tested on FGFR1 (UniProt P11362): LDTSQYFRLFN [CPT2_Y217_M214T] . Observed phosphorylation enrichment: 1.47

Lab entry: FGFR1 (UniProt P11362) assay, sequence ATPSRYMTFLH [DYNC2H1_Y2872] , phosphorylation enrichment = 0.329

Test item NAMRRHIEEFQ [MNS1_Y244_Y244H] ; FGFR1 (UniProt P11362); reported phosphorylation enrichment was 0.348

---

assay.target: Fyn (UniProt P06241)
Sequence (P06241 whole entry, looked up): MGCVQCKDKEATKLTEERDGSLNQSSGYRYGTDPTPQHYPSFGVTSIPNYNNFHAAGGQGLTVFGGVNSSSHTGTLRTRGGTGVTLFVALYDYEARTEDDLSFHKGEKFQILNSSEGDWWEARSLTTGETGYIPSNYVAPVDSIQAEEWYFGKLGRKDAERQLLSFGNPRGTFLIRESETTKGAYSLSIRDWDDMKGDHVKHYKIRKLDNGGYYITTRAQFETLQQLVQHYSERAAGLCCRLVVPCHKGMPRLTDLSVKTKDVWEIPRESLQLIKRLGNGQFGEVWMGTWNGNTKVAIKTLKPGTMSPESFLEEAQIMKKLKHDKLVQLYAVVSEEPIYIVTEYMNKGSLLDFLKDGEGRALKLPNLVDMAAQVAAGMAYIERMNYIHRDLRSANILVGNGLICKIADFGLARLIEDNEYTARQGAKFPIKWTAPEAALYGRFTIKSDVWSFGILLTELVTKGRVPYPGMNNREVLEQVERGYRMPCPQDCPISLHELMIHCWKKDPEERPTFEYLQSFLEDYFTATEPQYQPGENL
assay.notes: phosphorylation enrichment, bacterial display (enrichment ratio); higher = better substrate or ligand; peptides without Tyr show the background
// reported phosphorylation enrichment per item
Give the figure only, with no unit attached.

# input.sequence, phosphorylation enrichment
measured = [
    ("SPDMLYQFLKQ [RPAP3_Y567_YF]", 0.792),
    ("AARVSYWLASG [DCHS1_Y1582_R1583W]", 0.573),
    ("QLHREYCLSPR [HJURP_Y445]", 0.92),
    ("GEVLVYVEDPA [FLNA_Y319]", 0.529),
    ("GSSEGYLHMVH [NIPBL_Y247_D246G]", 0.368),
    ("TESNNYIYKTL [FAM83B_Y637]", 1.31),
    ("EFQLPYFNMVP [BMPR1A_Y457_YF]", 0.547),
    ("KVVNEYVTKGQ [MYH7_Y410_G407V]", 0.36),
]

Reported phosphorylation enrichment of AKVKPYINGTS [IBTK_Y1064_V1065I] : 0.343

So for YISLIYTNYEA [GSTP1_Y109] , the logged phosphorylation enrichment turned out to be 3.72

Note to self: phosphorylation enrichment recorded for NACGLYHKMNG [GATA5_Y216] was 0.371

# phosphorylation enrichment of RKRQFYLYKGK [RSPO4_Y112_C107R] = 0.503

---

Catalogue of sequences with associated phosphorylation enrichment
assay.target: MERTK (UniProt Q12866)
Sequence (Q12866 whole entry, looked up): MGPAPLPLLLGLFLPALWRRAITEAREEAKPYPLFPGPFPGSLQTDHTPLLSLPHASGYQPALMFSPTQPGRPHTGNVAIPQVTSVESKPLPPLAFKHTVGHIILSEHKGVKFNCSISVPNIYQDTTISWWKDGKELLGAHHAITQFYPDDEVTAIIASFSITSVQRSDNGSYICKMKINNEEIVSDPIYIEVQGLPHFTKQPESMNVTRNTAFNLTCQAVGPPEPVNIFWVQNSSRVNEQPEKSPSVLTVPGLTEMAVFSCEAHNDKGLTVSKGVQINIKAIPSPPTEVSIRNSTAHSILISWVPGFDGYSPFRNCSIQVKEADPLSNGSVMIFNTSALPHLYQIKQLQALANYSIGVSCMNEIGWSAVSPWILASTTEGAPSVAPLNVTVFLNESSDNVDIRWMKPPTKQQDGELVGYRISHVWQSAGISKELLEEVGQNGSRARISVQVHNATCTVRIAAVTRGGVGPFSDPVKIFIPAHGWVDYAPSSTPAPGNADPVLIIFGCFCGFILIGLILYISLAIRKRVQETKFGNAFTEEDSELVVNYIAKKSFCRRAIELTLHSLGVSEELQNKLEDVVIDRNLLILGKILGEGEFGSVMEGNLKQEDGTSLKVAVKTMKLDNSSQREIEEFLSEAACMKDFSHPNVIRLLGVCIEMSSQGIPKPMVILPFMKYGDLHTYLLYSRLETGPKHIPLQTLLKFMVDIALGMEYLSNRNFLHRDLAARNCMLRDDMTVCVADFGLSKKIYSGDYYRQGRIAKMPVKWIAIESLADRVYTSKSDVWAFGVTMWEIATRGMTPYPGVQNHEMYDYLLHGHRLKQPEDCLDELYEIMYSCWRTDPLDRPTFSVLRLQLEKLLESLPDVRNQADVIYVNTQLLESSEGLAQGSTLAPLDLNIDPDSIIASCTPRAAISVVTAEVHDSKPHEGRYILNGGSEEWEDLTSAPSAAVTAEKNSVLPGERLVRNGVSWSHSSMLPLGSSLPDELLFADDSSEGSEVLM
assay.notes: phosphorylation enrichment, bacterial display (enrichment ratio); higher = better substrate or ligand; peptides without Tyr show the background
Answer with the value's number alone.

As a guide, the following entries are already answered.
# input.sequence, phosphorylation enrichment
rows = [
    ("FGRTFYNQAIM [MCCC2_Y196]", 0.431),
    ("CTTIYYNYMCN [TP53_Y234_H233Y]", 7.86),
    ("GPGLVYGVANK [FLNB_Y1833]", 0.422),
    ("EEGRVYVFHLS [ITGAE_Y549_R552H_YF]", 0.48),
    ("SAQHHYESLQT [BIN1_Y157_R154Q]", 0.504),
    ("PLRAYYLIARV [HLCS_Y635_D634Y]", 0.636),
]

Looking up KVKVEYDMTVP [AHNAK_Y964_G962V] , I see its phosphorylation enrichment listed as 0.478

Memo: GGQVFYNSEFG [FLT4_Y1333_YF] , reported phosphorylation enrichment: 0.546

Consider KRISCYEASFQ [PFKFB3_Y194_YF] . Its measured phosphorylation enrichment is 0.527

Query AGTILSHAHLD [ASS1_Y291_Y291S] yields phosphorylation enrichment of 0.289

---

assay.target: EPHB2 (UniProt P29323)
Sequence (P29323 whole entry, looked up): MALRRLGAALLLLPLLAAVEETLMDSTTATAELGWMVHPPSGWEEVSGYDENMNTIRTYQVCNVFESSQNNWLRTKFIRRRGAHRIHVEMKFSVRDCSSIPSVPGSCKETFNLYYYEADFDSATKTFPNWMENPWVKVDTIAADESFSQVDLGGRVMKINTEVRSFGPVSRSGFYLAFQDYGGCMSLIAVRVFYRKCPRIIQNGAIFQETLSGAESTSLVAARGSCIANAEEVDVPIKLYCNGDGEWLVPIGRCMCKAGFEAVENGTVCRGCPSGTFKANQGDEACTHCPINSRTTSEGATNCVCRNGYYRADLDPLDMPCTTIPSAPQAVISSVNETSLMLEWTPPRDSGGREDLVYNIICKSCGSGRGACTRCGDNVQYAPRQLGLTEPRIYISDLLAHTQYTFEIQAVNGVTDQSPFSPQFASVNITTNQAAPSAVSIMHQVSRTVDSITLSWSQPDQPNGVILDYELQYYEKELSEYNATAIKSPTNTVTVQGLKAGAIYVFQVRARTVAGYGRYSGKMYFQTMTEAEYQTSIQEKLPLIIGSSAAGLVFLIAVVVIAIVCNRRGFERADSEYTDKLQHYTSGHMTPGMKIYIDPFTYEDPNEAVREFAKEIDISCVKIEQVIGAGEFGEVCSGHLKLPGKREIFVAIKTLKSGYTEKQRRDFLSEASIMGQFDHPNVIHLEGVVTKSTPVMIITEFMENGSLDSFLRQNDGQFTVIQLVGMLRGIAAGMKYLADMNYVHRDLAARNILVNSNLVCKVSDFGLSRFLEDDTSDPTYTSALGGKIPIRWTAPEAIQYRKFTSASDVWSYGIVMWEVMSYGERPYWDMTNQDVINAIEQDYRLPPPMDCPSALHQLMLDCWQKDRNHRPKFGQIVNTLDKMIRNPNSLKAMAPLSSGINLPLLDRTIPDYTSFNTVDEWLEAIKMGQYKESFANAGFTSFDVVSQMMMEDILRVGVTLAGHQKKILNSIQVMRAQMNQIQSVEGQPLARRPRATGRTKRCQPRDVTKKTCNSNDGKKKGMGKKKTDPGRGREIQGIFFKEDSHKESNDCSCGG
assay.notes: phosphorylation enrichment, bacterial display (enrichment ratio); higher = better substrate or ligand; peptides without Tyr show the background
quantity.measured: phosphorylation enrichment
# print the numeric value only

Examples from the recorded data:
# input.sequence, phosphorylation enrichment
rows = [
    ("CKLCQYYLDHL [ATRX_Y1849_Y1847C]", 0.419),
    ("EVEFQYPFRLH [SYP_Y73_E72Q]", 0.498),
    ("VKPENDRRLDI [VHL_Y175_Y175D]", 0.438),
    ("RDHYGYRQSVT [CD55_Y245]", 0.472),
    ("RGNKEYKEEKR [LENG1_Y96_E97K]", 0.423),
]

For this sequence ( SQQTYYPVSNM [ABCD1_Y181_R182P] ), measured phosphorylation enrichment is 4.24

Memo: RKRQFYLYKGK [RSPO4_Y112_C107R] , reported phosphorylation enrichment: 0.615

---

Test system: AncSZ
assay.notes: phosphorylation enrichment, bacterial display (enrichment ratio); higher = better substrate or ligand; peptides without Tyr show the background
quantity.measured: phosphorylation enrichment
Give only the figure.

Reference set, count: 2
# input.sequence, phosphorylation enrichment
measured = [
    ("TTICKYSTPME [GUCY2C_Y839]", 0.798),
    ("NLTVNYKKNLI [SQOR_Y259]", 0.669),
]

The recorded phosphorylation enrichment for DTKPVYQNLRQ [BOD1_Y82_A81V] is 0.596

The measured phosphorylation enrichment associated with MGRVNYGAYIN [GLB1_Y485] reads 0.701

---

assay.target: FGFR3 (UniProt P22607)
Sequence (P22607 whole entry, looked up): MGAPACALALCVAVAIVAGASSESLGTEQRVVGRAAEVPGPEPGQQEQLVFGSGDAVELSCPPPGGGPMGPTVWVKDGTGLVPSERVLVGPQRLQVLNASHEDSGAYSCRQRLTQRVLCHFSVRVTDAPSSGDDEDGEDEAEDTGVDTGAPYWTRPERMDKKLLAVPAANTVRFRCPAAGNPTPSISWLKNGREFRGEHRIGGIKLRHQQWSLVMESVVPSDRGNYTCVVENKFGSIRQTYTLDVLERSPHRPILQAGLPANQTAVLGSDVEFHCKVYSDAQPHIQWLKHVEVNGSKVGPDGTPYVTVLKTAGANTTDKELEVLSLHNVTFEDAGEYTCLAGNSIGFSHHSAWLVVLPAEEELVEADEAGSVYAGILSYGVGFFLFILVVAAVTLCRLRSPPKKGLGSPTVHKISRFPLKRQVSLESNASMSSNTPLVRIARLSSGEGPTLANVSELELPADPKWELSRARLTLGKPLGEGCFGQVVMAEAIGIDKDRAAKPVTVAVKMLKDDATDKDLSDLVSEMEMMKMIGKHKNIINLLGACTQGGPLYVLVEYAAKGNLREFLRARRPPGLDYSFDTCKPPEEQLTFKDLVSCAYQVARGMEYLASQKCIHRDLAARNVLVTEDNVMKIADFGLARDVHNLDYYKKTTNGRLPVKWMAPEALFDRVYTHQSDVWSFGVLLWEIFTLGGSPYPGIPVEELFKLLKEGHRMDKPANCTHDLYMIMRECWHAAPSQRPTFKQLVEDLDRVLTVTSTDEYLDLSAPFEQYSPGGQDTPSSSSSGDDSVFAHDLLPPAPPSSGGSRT
assay.notes: phosphorylation enrichment, bacterial display (enrichment ratio); higher = better substrate or ligand; peptides without Tyr show the background
quantity.measured: phosphorylation enrichment
Please give only the number in your answer, with no unit.

Example results:
# input.sequence, phosphorylation enrichment
records = [
    ("SVTCTYCPALN [TP53_Y126_S127C]", 0.46),
    ("DKATEYIQYMR [MAX_Y70]", 0.572),
    ("RAYRRYLLKQK [SCN2A_Y1919]", 0.495),
    ("FIGRIYLFLTK [GARS1_Y414_YF]", 0.813),
    ("HGAKVYIDPFT [EPHB4_Y590_T587A]", 0.912),
    ("HPWPQYTTRAP [FNDC1_Y1281]", 0.54),
]

The recorded phosphorylation enrichment with FGFR3 (UniProt P22607) for PDMHSYVVRFN [GRIN2D_Y732_M733V_YF] was 0.797

The sequence RSRSPYSPVFR [CDK13_Y399_L403F] on FGFR3 (UniProt P22607): phosphorylation enrichment was 0.462

Measured on FGFR3 (UniProt P22607), GKMPQYLESMQ [CYB5R3_Y130_S128P] has a documented phosphorylation enrichment of 0.554

Record for VAFLYYKSIGP [ADGRL4_Y302_V300L] under target or system FGFR3 (UniProt P22607): phosphorylation enrichment reported as 1.09

The sequence PVGVLYEVKVF [PTS_Y128_K129E_YF] on FGFR3 (UniProt P22607): phosphorylation enrichment was 1.41

Lab entry: FGFR3 (UniProt P22607) assay, sequence RWHEGYRQTPK [CD44_Y412] , phosphorylation enrichment = 0.595

Item PSDPSYEDTRE [BMPR1A_Y467_M470T] was tested on FGFR3 (UniProt P22607); the reported phosphorylation enrichment is 1.18

Reported FGFR3 (UniProt P22607) phosphorylation enrichment for item SEEVTYATLTF [CLEC12B_Y7] was 1.57

# value of phosphorylation enrichment, FGFR3 (UniProt P22607), item MPLTEYLKRIK [CNGB3_Y200] = 0.462

// returns phosphorylation enrichment for GRKTLYSFFSP [UNG_Y8_Q4R] with FGFR3 (UniProt P22607); value = 0.641

Here DHPSEYAARQL [ANXA13_Y90_R86H] was tested on FGFR3 (UniProt P22607), and its phosphorylation enrichment came to 0.445
